target or system: acetylcholine muscarinic M1 receptor (Homo sapiens)
Sequence (P11229 whole entry): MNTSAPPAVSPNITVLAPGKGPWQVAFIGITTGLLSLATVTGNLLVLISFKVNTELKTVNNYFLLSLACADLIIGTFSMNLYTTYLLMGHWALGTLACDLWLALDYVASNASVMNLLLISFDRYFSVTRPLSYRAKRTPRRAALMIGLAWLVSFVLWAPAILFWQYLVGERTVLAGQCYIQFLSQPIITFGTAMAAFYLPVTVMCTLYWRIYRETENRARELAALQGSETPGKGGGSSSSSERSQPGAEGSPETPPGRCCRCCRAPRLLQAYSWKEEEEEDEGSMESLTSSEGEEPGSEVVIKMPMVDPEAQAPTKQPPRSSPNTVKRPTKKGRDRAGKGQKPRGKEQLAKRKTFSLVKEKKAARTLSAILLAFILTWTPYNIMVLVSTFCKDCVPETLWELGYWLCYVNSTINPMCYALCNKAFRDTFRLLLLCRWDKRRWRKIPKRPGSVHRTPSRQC
assay explanation: muscarinic M1 FLIPR intracellular calcium assay (positive allosteric modulation, EC20 acetylcholine)
run parameters: inflection point from FLIPR values; CHOnfat/hM1 cells; 4 min preincubation, then EC20 acetylcholine (3 nM final); read-out: IP Value
property: EC50 (nM)
Give bare numbers, in nM.

Example cases with answers are listed next.
> print(dat)
                            chemical.smiles  property  endpoint.value
1     O=C(O)c1cc(Cc2ccc(Cl)cc2)c2ccccn2c1=O      EC50             201
2  O=C(O)c1cc(Cc2ccc(-c3ccccc3)cc2)c2ccccn2c1=O      EC50             110

Memo: "Cn1cc(-c2ccc(Cc3cc(C(=O)O)c(=O)n4ccccc34)nc2)cn1" , reported EC50: 213

Taken from patent US8278453B2.
